Origin of the recorded values: the emibetuzumab library of Makowski et al. (2022)

B1: VH:VL chains; a variant is named by its letters at X, in order (parent)
chain 1: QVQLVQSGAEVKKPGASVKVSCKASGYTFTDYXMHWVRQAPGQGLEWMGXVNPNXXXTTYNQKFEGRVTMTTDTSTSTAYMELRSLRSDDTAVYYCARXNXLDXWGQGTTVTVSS
chain 2: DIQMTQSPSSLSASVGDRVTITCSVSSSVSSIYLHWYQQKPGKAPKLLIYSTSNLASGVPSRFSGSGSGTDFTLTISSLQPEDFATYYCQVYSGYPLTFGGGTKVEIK

Variants of: B1
Test: yeast display scFab, FACS + sequencing
assay-metric: non-specific binding call

>>> observed_measurement("FRTEGSGY")
"binds"
>>> observed_measurement("YRGGAAWY")
"binds"
>>> observed_measurement("VRRGGSGS")
"binds"
>>> observed_measurement("SEEEGDVA")
"no binding"
>>> observed_measurement("SRTRDAGD")
"no binding"

What non-specific binding call value was documented for this variant, STGEDDVY ?
no binding

Return reported non-specific binding call; argument: FREGGSGD
binds
